What IC50 at 96 h was measured for each of the following?
Test: Cytotoxicity against human MRC5 cells assessed as inhibition of cell growth measured after 96 hrs by MTT assay
Type: toxicity, cell-based
Entry rule: numbers only, all in µM.

Query string: # IC50 at 96 h lookup, item CC1=C(O)C(=O)C=C2C1=CC=C1[C@@]2(C)CC[C@@]2(C)[C@@H]3C[C@](C)(C(=O)N4CCN(C(=O)CN5C(=O)S/C(=C\c6cccc(C)c6)C5=O)CC4)CC[C@]3(C)CC[C@]12C
Result string: 3.19

Query string: Thanks! And CC1=C(O)C(=O)C=C2C1=CC=C1[C@@]2(C)CC[C@@]2(C)[C@@H]3C[C@](C)(C(=O)N4CCN(C(=O)CN5C(=O)S/C(=C\c6cccc(Cl)c6)C5=O)CC4)CC[C@]3(C)CC[C@]12C ?
Result string: 3.16

Query string: Thanks! And CCCC/C=C1\SC(=O)N(CC(=O)N2CCN(C(=O)[C@]3(C)CC[C@]4(C)CC[C@]5(C)C6=CC=C7C(=CC(=O)C(O)=C7C)[C@]6(C)CC[C@@]5(C)[C@@H]4C3)CC2)C1=O ?
Result string: 3.44

Query string: Thanks! And CC1=C(O)C(=O)C=C2C1=CC=C1[C@@]2(C)CC[C@@]2(C)[C@@H]3C[C@](C)(C(=O)N4CCN(C(=O)CN5C(=O)S/C(=C\c6ccc(Br)cc6)C5=O)CC4)CC[C@]3(C)CC[C@]12C ?
Result string: 3.71

Query string: Thanks! And CC1=C(O)C(=O)C=C2C1=CC=C1[C@@]2(C)CC[C@@]2(C)[C@@H]3C[C@](C)(C(=O)N4CCN(C(=O)CN5C(=O)S/C(=C\c6ccc(F)cc6)C5=O)CC4)CC[C@]3(C)CC[C@]12C ?
Result string: 2.75

Query string: Thanks! And CC1=C(O)C(=O)C=C2C1=CC=C1[C@@]2(C)CC[C@@]2(C)[C@@H]3C[C@](C)(C(=O)N4CCN(C(=O)CN5C(=O)S/C(=C\c6cccc(F)c6)C5=O)CC4)CC[C@]3(C)CC[C@]12C ?
Result string: 3.18

Query string: Thanks! And CC1=C(O)C(=O)C=C2C1=CC=C1[C@@]2(C)CC[C@@]2(C)[C@@H]3C[C@](C)(C(=O)N4CCN(C(=O)CN5C(=O)S/C(=C\C6CCCC6)C5=O)CC4)CC[C@]3(C)CC[C@]12C ?
Result string: 3.21

Query string: Thanks! And CC1=C(O)C(=O)C=C2C1=CC=C1[C@@]2(C)CC[C@@]2(C)[C@@H]3C[C@](C)(C(=O)N4CCN(C(=O)CN5C(=O)S/C(=C\c6ccc(Cl)cc6)C5=O)CC4)CC[C@]3(C)CC[C@]12C ?
Result string: 3.08

Query string: Thanks! And CC1=C(O)C(=O)C=C2C1=CC=C1[C@@]2(C)CC[C@@]2(C)[C@@H]3C[C@](C)(C(=O)N4CCN(C(=O)CN5C(=O)S/C(=C\c6ccco6)C5=O)CC4)CC[C@]3(C)CC[C@]12C ?
Result string: 1.05

Query string: Thanks! And COc1cccc(/C=C2\SC(=O)N(CC(=O)N3CCN(C(=O)[C@]4(C)CC[C@]5(C)CC[C@]6(C)C7=CC=C8C(=CC(=O)C(O)=C8C)[C@]7(C)CC[C@@]6(C)[C@@H]5C4)CC3)C2=O)c1 ?
Result string: 2.38

====

Assay: Selectivity index, ratio of IC50 for human MRC5 cells to IC50 for human A549 cells
Assay type: toxicity
Conditions: MRC5 cells and A549 cells, read-out: Ratio IC50
Kindly return Met if reported selectivity ratio is no lower than 7; return Not met if it is lower.

Query string: Quick check: does CC1=C(O)C(=O)C=C2C1=CC=C1[C@@]2(C)CC[C@@]2(C)[C@@H]3C[C@](C)(C(=O)N4CCN(C(=O)CN5C(=O)S/C(=C\c6ccc(C)cc6)C5=O)CC4)CC[C@]3(C)CC[C@]12C have selectivity ratio greater than or equal to 7?
Result string: Not met

Query string: Thanks! And CC1=C(O)C(=O)C=C2C1=CC=C1[C@@]2(C)CC[C@@]2(C)[C@@H]3C[C@](C)(C(=O)N4CCN(C(=O)CN5C(=O)S/C(=C\C6CCCCC6)C5=O)CC4)CC[C@]3(C)CC[C@]12C ?
Result string: Not met

Query string: Thanks! And CC1=C(O)C(=O)C=C2C1=CC=C1[C@@]2(C)CC[C@@]2(C)[C@@H]3C[C@](C)(C(=O)N4CCN(C(=O)CN5C(=O)S/C(=C\c6cccc(C)c6)C5=O)CC4)CC[C@]3(C)CC[C@]12C ?
Result string: Not met

Query string: Thanks! And CC1=C(O)C(=O)C=C2C1=CC=C1[C@@]2(C)CC[C@@]2(C)[C@@H]3C[C@](C)(C(=O)N4CCN(C(=O)CN5C(=O)S/C(=C\c6ccc7c(c6)OCO7)C5=O)CC4)CC[C@]3(C)CC[C@]12C ?
Result string: Met

Query string: Thanks! And CC1=C(O)C(=O)C=C2C1=CC=C1[C@@]2(C)CC[C@@]2(C)[C@@H]3C[C@](C)(C(=O)N4CCN(C(=O)CN5C(=O)S/C(=C\c6ccc(N(C)C)cc6)C5=O)CC4)CC[C@]3(C)CC[C@]12C ?
Result string: Not met

Query string: Thanks! And CC1=C(O)C(=O)C=C2C1=CC=C1[C@@]2(C)CC[C@@]2(C)[C@@H]3C[C@](C)(C(=O)N4CCN(C(=O)CN5C(=O)S/C(=C\c6ccccc6)C5=O)CC4)CC[C@]3(C)CC[C@]12C ?
Result string: Not met

Query string: Thanks! And CC1=C(O)C(=O)C=C2C1=CC=C1[C@@]2(C)CC[C@@]2(C)[C@@H]3C[C@](C)(C(=O)N4CCN(C(=O)CN5C(=O)S/C(=C\c6cccc(Br)c6)C5=O)CC4)CC[C@]3(C)CC[C@]12C ?
Result string: Not met

Query string: Thanks! And CC1=C(O)C(=O)C=C2C1=CC=C1[C@@]2(C)CC[C@@]2(C)[C@@H]3C[C@](C)(C(=O)N4CCN(C(=O)CN5C(=O)S/C(=C\c6ccco6)C5=O)CC4)CC[C@]3(C)CC[C@]12C ?
Result string: Not met

Query string: Thanks! And CC1=C(O)C(=O)C=C2C1=CC=C1[C@@]2(C)CC[C@@]2(C)[C@@H]3C[C@](C)(C(=O)N4CCN(C(=O)CN5C(=O)S/C(=C\c6ccc(Br)cc6)C5=O)CC4)CC[C@]3(C)CC[C@]12C ?
Result string: Met

Query string: Thanks! And CC1=C(O)C(=O)C=C2C1=CC=C1[C@@]2(C)CC[C@@]2(C)[C@@H]3C[C@](C)(C(=O)N4CCN(C(=O)CN5C(=O)S/C(=C\C6CC6)C5=O)CC4)CC[C@]3(C)CC[C@]12C ?
Result string: Met

Query string: Thanks! And CCCC/C=C1\SC(=O)N(CC(=O)N2CCN(C(=O)[C@]3(C)CC[C@]4(C)CC[C@]5(C)C6=CC=C7C(=CC(=O)C(O)=C7C)[C@]6(C)CC[C@@]5(C)[C@@H]4C3)CC2)C1=O ?
Result string: Met

====

Tested on: A549
Assay: cells
Conditions: Homo sapiens, A549, 96 h
Description: Cytotoxicity against human A549 cells assessed as inhibition of cell growth measured after 96 hrs by MTT assay
What pIC50 was measured for each of the following?
Would you please state pIC50, meaning minus log10 of the concentration in mol/L, as a bare number?

Query string: # pIC50 lookup, item CC1=C(O)C(=O)C=C2C1=CC=C1[C@@]2(C)CC[C@@]2(C)[C@@H]3C[C@](C)(C(=O)N4CCN(C(=O)CN5C(=O)S/C(=C\c6ccc(Br)cc6)C5=O)CC4)CC[C@]3(C)CC[C@]12C
Result string: 6.29

Query string: Thanks! And CC1=C(O)C(=O)C=C2C1=CC=C1[C@@]2(C)CC[C@@]2(C)[C@@H]3C[C@](C)(C(=O)N4CCN(C(=O)CN5C(=O)S/C(=C\c6ccc(N(C)C)cc6)C5=O)CC4)CC[C@]3(C)CC[C@]12C ?
Result string: 6.03

Query string: Thanks! And CC1=C(O)C(=O)C=C2C1=CC=C1[C@@]2(C)CC[C@@]2(C)[C@@H]3C[C@](C)(C(=O)N4CCN(C(=O)CN5C(=O)S/C(=C\c6cccs6)C5=O)CC4)CC[C@]3(C)CC[C@]12C ?
Result string: 6.44

Query string: Thanks! And CC1=C(O)C(=O)C=C2C1=CC=C1[C@@]2(C)CC[C@@]2(C)[C@@H]3C[C@](C)(C(=O)N4CCN(C(=O)CN5C(=O)S/C(=C\c6ccco6)C5=O)CC4)CC[C@]3(C)CC[C@]12C ?
Result string: 6.77

Query string: Thanks! And CC1=C(O)C(=O)C=C2C1=CC=C1[C@@]2(C)CC[C@@]2(C)[C@@H]3C[C@](C)(C(=O)N4CCN(C(=O)CN5C(=O)S/C(=C\c6cccc(F)c6)C5=O)CC4)CC[C@]3(C)CC[C@]12C ?
Result string: 6.40

Query string: Thanks! And CC1=C(O)C(=O)C=C2C1=CC=C1[C@@]2(C)CC[C@@]2(C)[C@@H]3C[C@](C)(C(=O)N4CCN(C(=O)CN5C(=O)S/C(=C\C6CC6)C5=O)CC4)CC[C@]3(C)CC[C@]12C ?
Result string: 7.10

Query string: Thanks! And COc1cccc(/C=C2\SC(=O)N(CC(=O)N3CCN(C(=O)[C@]4(C)CC[C@]5(C)CC[C@]6(C)C7=CC=C8C(=CC(=O)C(O)=C8C)[C@]7(C)CC[C@@]6(C)[C@@H]5C4)CC3)C2=O)c1 ?
Result string: 6.44

Query string: Thanks! And CC1=C(O)C(=O)C=C2C1=CC=C1[C@@]2(C)CC[C@@]2(C)[C@@H]3C[C@](C)(C(=O)N4CCN(C(=O)CN5C(=O)S/C(=C\c6ccc(Cl)cc6)C5=O)CC4)CC[C@]3(C)CC[C@]12C ?
Result string: 6.38

Query string: Thanks! And CC1=C(O)C(=O)C=C2C1=CC=C1[C@@]2(C)CC[C@@]2(C)[C@@H]3C[C@](C)(C(=O)N4CCN(C(=O)CN5C(=O)S/C(=C\c6ccc(C)cc6)C5=O)CC4)CC[C@]3(C)CC[C@]12C ?
Result string: 6.29

Query string: Thanks! And CC1=C(O)C(=O)C=C2C1=CC=C1[C@@]2(C)CC[C@@]2(C)[C@@H]3C[C@](C)(C(=O)O)CC[C@]3(C)CC[C@]12C ?
Result string: 5.96

Query string: Thanks! And CC1=C(O)C(=O)C=C2C1=CC=C1[C@@]2(C)CC[C@@]2(C)[C@@H]3C[C@](C)(C(=O)N4CCN(C(=O)CN5C(=O)S/C(=C\C6CCCCC6)C5=O)CC4)CC[C@]3(C)CC[C@]12C ?
Result string: 6.26

Query string: Thanks! And CC1=C(O)C(=O)C=C2C1=CC=C1[C@@]2(C)CC[C@@]2(C)[C@@H]3C[C@](C)(C(=O)N4CCN(C(=O)CN5C(=O)S/C(=C\c6ccc(F)cc6)C5=O)CC4)CC[C@]3(C)CC[C@]12C ?
Result string: 6.43

Query string: Thanks! And CC1=C(O)C(=O)C=C2C1=CC=C1[C@@]2(C)CC[C@@]2(C)[C@@H]3C[C@](C)(C(=O)N4CCN(C(=O)CN5C(=O)S/C(=C\c6ccccc6)C5=O)CC4)CC[C@]3(C)CC[C@]12C ?
Result string: 6.40
